# System: Canis familiaris
# EXPERIMENT_SUMMARY: AUC (0 to 24 hrs) in dog at 2 mg/kg, po
# Assay type: ADME, organism-based, Canis lupus familiaris, Plasma
# Design: time < 24 hr, dose 2 mg/kg, route oral
# CONDITION: in vivo
MEASUREMENT_LABEL: AUC (µM·h)
Express the result in µM·h but write the number alone.

GET /values?readout=AUC&system=Canis familiaris&item= Nc1nc(Cl)c(C#Cc2ccsc2)c(N[C@@H]2C[C@H](CO)[C@@H](O)[C@H]2O)n1
2.2

###

# System: Rattus norvegicus
# EXPERIMENT_SUMMARY: AUC (0 to 24 hrs) in rat at 10 mg/kg, po and 2 mg/kg, iv
# Assay type: ADME, organism-based, Plasma
# CONDITION: in vivo
MEASUREMENT_LABEL: AUC (µM·h)
Express the result in µM·h but write the number alone.

Data request, read-out AUC, for Nc1nc(Cl)c(C#Cc2ccsc2)c(N[C@@H]2C[C@H](CO)[C@@H](O)[C@H]2O)n1
1.6

Data request, read-out AUC, for Nc1nc(Cl)c(C#Cc2nccs2)c(N[C@@H]2C[C@H](CO)[C@@H](O)[C@H]2O)n1
0.6
